# target-or-system: c-Met (Homo sapiens, UniProt P08581)
# Construct: Kinases are expressed as either kinase domains or full length constructs; made in house
# Sequence (P08581 25-1390): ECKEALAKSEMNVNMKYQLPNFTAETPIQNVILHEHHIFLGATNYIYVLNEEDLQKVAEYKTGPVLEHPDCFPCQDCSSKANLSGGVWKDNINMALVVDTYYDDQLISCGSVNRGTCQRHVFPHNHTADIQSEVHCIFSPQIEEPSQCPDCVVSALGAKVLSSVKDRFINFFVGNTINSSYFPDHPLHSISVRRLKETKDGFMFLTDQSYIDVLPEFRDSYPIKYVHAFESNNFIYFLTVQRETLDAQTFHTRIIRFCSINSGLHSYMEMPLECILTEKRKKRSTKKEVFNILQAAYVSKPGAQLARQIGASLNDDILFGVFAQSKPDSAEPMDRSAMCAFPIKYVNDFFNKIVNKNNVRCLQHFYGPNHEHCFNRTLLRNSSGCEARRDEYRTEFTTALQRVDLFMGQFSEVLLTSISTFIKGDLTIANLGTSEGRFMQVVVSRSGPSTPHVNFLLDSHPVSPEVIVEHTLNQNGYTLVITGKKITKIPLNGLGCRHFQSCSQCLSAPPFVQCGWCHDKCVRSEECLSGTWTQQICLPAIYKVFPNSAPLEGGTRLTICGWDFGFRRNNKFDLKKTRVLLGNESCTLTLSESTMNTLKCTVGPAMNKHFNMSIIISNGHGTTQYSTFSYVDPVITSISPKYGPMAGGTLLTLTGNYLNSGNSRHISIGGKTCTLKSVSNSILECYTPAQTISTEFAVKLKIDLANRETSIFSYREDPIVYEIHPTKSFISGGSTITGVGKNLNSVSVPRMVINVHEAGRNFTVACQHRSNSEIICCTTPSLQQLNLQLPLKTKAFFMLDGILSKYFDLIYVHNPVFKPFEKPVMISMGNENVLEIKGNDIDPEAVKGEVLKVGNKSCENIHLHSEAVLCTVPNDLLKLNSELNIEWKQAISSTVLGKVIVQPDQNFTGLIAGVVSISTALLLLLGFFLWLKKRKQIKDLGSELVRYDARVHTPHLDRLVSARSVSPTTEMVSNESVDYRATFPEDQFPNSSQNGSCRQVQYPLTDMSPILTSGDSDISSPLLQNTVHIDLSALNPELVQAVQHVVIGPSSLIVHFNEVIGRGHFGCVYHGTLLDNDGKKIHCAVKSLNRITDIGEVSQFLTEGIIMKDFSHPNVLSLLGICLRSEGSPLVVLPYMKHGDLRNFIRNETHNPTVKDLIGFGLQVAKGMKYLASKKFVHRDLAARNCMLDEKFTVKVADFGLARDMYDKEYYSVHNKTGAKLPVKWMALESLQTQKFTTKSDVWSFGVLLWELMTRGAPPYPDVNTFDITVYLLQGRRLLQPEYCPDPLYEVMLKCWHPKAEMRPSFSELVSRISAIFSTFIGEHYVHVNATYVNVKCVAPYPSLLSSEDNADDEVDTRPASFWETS
# test-description: Kinase inhibition assay (33P transfer), c-Met
# Type: biochemical
# condition-details: Table 2, kinase inhibition class; read-out: Met-1
pIC50: −log10 of the molar value.
measured-endpoint: pIC50

// worked examples, pIC50 included
| compound | target-or-system | endpoint-result |
| --- | --- | --- |
| CCc1ccc(Nc2ncnc(-n3c(N)nc4ccccc43)n2)cc1 | c-Met (Homo sapiens, UniProt P08581) | 4.98 to 5.14 |
| Nc1ncnc(Nc2cccc(Nc3ncnc(N)n3)c2)n1 | c-Met (Homo sapiens, UniProt P08581) | < 4.82 |
| COc1cc(Nc2ncnc(N(CC(=O)OC(C)(C)C)c3ccc(Cl)cc3)n2)cc(OC)c1OC | c-Met (Homo sapiens, UniProt P08581) | < 5.05 |

Any idea what pIC50 was measured for FC(F)(F)c1cccc(Nc2ncnc(-n3cccc3)n2)c1 ?
< 4.83

Now consider COc1cc(Nc2ncnc(-n3cc(C)c4ccccc43)n2)cc(OC)c1OC and answer again.
4.94 to 5.05

Now consider COc1cc(Nc2ncnc(-c3ccnc(N4CCCCC4)c3)n2)cc(OC)c1OC and answer again.
5.25 to 6.02

Now consider COc1cc(Nc2ncnc(Nc3cc(-c4ccccc4)n[nH]3)n2)cc(OC)c1OC and answer again.
> 6.02

Now consider COc1cc(Nc2ncnc(N3CCCCC3)n2)cc(OC)c1OC and answer again.
< 4.89

* * *

Below, each entry is listed with its recorded pIC50.
# target-or-system: EGFR (Homo sapiens)
# Construct: Kinases are expressed as either kinase domains or full length constructs; made in house
# Sequence (P00533 25-1210, species assumed): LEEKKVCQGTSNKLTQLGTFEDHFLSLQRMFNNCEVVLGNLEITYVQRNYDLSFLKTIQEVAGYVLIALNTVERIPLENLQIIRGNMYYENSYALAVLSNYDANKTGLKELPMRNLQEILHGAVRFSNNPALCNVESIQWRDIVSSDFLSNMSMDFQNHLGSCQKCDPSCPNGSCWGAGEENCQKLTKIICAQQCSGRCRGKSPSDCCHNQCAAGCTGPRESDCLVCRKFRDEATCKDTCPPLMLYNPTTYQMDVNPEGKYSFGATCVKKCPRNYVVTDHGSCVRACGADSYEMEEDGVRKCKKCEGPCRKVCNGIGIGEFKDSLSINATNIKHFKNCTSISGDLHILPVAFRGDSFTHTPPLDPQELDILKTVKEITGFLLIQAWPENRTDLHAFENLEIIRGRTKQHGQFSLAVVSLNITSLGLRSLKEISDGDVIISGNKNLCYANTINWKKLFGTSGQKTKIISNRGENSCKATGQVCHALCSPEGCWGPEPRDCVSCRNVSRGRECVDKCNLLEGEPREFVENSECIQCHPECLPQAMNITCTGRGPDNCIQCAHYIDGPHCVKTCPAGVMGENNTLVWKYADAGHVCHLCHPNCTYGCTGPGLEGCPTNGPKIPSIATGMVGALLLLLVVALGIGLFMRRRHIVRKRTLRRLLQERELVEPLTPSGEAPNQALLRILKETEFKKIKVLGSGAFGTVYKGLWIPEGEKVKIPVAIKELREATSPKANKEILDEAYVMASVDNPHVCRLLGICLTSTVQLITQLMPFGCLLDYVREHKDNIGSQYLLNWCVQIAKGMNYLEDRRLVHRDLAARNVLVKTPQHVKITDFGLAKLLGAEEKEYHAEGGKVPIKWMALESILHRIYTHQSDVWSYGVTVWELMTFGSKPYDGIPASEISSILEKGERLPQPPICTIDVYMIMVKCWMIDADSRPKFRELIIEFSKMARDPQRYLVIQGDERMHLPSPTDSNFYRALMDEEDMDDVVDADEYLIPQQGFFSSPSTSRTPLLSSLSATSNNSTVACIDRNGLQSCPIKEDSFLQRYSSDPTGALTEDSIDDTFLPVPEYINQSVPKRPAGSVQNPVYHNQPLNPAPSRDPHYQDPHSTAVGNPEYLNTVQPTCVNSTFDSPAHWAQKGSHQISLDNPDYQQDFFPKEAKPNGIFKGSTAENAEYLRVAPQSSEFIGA
# test-description: Kinase inhibition assay (33P transfer), EGFR
# Type: biochemical
# condition-details: Table 2, class symbols A-E; read-out: EGFR-1
pIC50: −log10 of the molar value.

// worked examples, pIC50 included
| input-smiles | endpoint-result |
| --- | --- |
| COc1ccc(Nc2ncnc(N(C)c3ccccc3)n2)cc1OC | > 5.93 |
| COc1ccc(Nc2ncnc(N(C)C3CCN(C)CC3)n2)cc1OC | < 4.90 |
| COc1cc(Nc2ncnc(-c3cccnc3Nc3cccc4c3CCCC4)n2)cc(OC)c1OC | < 5.03 |
| COc1ccc(Nc2ncnc(NCc3ncc(C(F)(F)F)cc3Cl)n2)cc1OC | 5.10 to 5.26 |
| COc1cc(Nc2ncnc(-c3cccnc3Nc3cc(Cl)cc(Cl)c3)n2)cc(OC)c1OC | < 5.05 |

Alright, here's another compound for you.
Any idea what pIC50 was measured for Cc1ccc2c(c1)CCCN2c1ncnc(NCc2ccc(C(=O)O)cc2)n1 ?
< 4.92

* * *

# target-or-system: c-Met (Homo sapiens)
# Construct: Kinases are expressed as either kinase domains or full length constructs; made in house
# test-description: Kinase inhibition assay (33P transfer), c-Met
# Type: biochemical
# condition-details: Table 2, kinase inhibition class; read-out: Met-1
# Protocol: The inhibitor compounds described herein are screened in the following manner. […] Kinases are expressed as either kinase domains or full length constructs fused to glutathione S-transferase (GST) or polyHistidine tagged fusion proteins in either E. colior Baculovirus-High Five expression systems. […] Kinase activity and inhibition are measured essentially by established protocols (Braunwalder et al., 1996). […]
pIC50: −log10 of the molar value.
measured-endpoint: pIC50

| molecule | target-or-system | pIC50 |
| --- | --- | --- |
| Oc1ccc(Nc2ncnc(Nc3ccc(OCc4ccccc4)cc3)n2)cc1 [Compound 158] | c-Met (Homo sapiens) | 5.21 to 5.98 |
| COC(=O)c1ccc(Nc2ncnc(Nc3cc(-c4ccco4)n[nH]3)n2)cc1 [Compound 366] | c-Met (Homo sapiens) | < 4.92 |

Alright, here's another molecule for you.
Item: CN(c1cccc(Cl)c1)c1ncnc(N[C@@H]2CCN(Cc3ccccc3)C2)n1 [Compound 755] Test system: c-Met (Homo sapiens) Read-out: pIC50 Value: ?
< 4.94

* * *

# target-or-system: Kdr (Homo sapiens)
# Construct: Kinases are expressed as either kinase domains or full length constructs; made in house
# Sequence (P35968 20-1356, species assumed): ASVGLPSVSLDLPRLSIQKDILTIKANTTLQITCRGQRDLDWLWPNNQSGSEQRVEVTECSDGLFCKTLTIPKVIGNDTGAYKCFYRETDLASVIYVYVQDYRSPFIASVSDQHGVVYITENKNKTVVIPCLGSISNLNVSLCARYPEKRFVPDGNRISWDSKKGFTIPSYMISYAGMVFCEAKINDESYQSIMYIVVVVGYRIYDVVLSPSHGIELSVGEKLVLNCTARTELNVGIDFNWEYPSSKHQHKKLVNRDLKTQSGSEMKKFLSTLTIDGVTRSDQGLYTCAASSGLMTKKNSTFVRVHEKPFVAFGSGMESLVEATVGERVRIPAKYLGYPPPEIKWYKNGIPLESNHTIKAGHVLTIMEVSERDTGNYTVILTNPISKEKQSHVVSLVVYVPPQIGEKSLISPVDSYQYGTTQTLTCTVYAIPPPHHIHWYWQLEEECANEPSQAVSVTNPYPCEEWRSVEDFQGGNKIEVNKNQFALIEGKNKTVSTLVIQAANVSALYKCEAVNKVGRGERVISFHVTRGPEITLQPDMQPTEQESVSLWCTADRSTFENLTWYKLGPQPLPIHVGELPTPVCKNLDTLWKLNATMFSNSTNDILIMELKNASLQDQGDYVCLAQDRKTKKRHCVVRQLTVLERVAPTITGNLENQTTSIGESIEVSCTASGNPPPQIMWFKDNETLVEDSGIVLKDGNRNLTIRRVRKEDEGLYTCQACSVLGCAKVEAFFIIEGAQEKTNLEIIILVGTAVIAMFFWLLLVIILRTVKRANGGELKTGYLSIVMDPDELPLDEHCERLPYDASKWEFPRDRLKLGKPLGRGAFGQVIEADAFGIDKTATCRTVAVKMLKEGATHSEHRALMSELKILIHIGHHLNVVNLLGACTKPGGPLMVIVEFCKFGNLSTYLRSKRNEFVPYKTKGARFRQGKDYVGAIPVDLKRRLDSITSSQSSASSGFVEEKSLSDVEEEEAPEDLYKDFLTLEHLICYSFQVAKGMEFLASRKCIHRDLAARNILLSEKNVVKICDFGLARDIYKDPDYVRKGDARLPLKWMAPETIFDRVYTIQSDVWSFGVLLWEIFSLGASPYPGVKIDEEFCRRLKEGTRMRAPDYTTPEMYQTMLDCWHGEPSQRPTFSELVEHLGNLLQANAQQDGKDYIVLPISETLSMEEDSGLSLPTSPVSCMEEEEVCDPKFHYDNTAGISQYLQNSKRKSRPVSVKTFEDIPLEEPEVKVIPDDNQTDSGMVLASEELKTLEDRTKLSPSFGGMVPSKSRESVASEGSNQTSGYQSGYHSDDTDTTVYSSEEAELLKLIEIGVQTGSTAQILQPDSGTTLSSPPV
# test-description: Kinase inhibition assay (33P transfer), Kdr
# Type: biochemical
# condition-details: Table 3; read-out: KDR-1
measured-endpoint: IC50

// worked examples, IC50 included
| compound | target-or-system | IC50 |
| --- | --- | --- |
| NC(=O)c1cccc(Nc2ncnc(-n3c(=O)[nH]c4ccccc43)n2)c1 [Compound 420] | Kdr (Homo sapiens) | 1.15 to 6.91 µM |
| NC(=O)c1ccc(Nc2ncnc(-n3c(N)nc4ccccc43)n2)cc1 [Compound 396] | Kdr (Homo sapiens) | < 1.15 µM |
| COc1cc(NC(=O)Nc2ncnc(Nc3cc(OC)c(OC)c(OC)c3)n2)cc(OC)c1 [Compound 22] | Kdr (Homo sapiens) | > 9.86 µM |

Any idea what IC50 was measured for CC(=O)Nc1ccc(Nc2ncnc(-c3cccs3)n2)cc1 [Compound 355] ?
> 14.5 µM

Now consider COc1cc(Nc2ncnc(-n3c(Nc4ccccc4C)nc4ccccc43)n2)cc(OC)c1OC [Compound 384] and answer again.
< 0.827 µM

* * *

# target-or-system: c-Met (Homo sapiens, UniProt P08581)
# Construct: Kinases are expressed as either kinase domains or full length constructs; made in house
# test-description: Kinase inhibition assay (33P transfer), c-Met
# Type: biochemical
# condition-details: Table 2, kinase inhibition class; read-out: Met-1
pIC50: −log10 of the molar value.
measured-endpoint: pIC50

// worked examples, pIC50 included
| compound | target-or-system | pIC50 |
| --- | --- | --- |
| Clc1ncnc(Nc2cc(-c3ccccc3)n[nH]2)n1 | c-Met (Homo sapiens, UniProt P08581) | < 4.78 |
| COc1cc(Nc2ncnc(-n3c(NCc4ccc(C)cc4C)nc4ccccc43)n2)cc(OC)c1OC | c-Met (Homo sapiens, UniProt P08581) | 5.06 to 5.16 |
| COc1ccc(Nc2ncnc(N(CC(=O)O)c3ccc4c(c3)OCO4)n2)cc1OC | c-Met (Homo sapiens, UniProt P08581) | 5.08 to 5.25 |
| COc1cc(Nc2ncnc(-c3c(O)n(C)c4ccccc34)n2)cc(OC)c1OC | c-Met (Homo sapiens, UniProt P08581) | < 4.96 |
| COc1cc(Nc2ncnc(Nc3ccccc3)n2)cc(OC)c1OC | c-Met (Homo sapiens, UniProt P08581) | < 4.90 |
| Nc1nc2ccccc2n1-c1ncnc(Cl)n1 | c-Met (Homo sapiens, UniProt P08581) | < 4.74 |
| COc1cc(Nc2ncnc(-n3c(=O)sc4cc(Br)ccc43)n2)cc(OC)c1OC | c-Met (Homo sapiens, UniProt P08581) | < 5.04 |
| COc1cc(Nc2ncnc(Nc3ncncn3)n2)cc(OC)c1OC | c-Met (Homo sapiens, UniProt P08581) | < 4.90 |
| COc1cc(Nc2ncnc(-n3ccnc3)n2)cc(OC)c1OC | c-Met (Homo sapiens, UniProt P08581) | < 4.86 |
| COc1cc(Nc2ncnc(-n3c(NC(C)C)nc4ccccc43)n2)cc(OC)c1OC | c-Met (Homo sapiens, UniProt P08581) | < 4.99 |

Any idea what pIC50 was measured for COC(=O)c1cc(OC)c(OC)cc1Nc1ncnc(-n2c(N)nc3ccccc32)n1 ?
< 4.97

Now consider CC(C)(C)OC(=O)NCc1cccc(Nc2ncnc(Nc3cc(-c4ccco4)n[nH]3)n2)c1 and answer again.
5.11 to 5.27

Now consider COc1cc(Nc2ncnc(Nc3nc4ccccc4n3C)n2)cc(OC)c1OC and answer again.
< 4.96

Now consider Nc1ncnc(Nc2cccc(C(F)(F)F)c2)n1 and answer again.
< 4.75

Now consider COc1cc(Nc2ncnc(-n3c(NCc4ccc(F)cc4Cl)nc4ccccc43)n2)cc(OC)c1OC and answer again.
< 5.08

Now consider COc1cc(Nc2ncnc(Nc3cccc(NC(=O)O[C@@H]4CCOC4)c3)n2)cc(OC)c1OC and answer again.
< 5.03

Now consider CC(C)(C)c1cc(Nc2ncnc(Nc3cccc(CO)c3)n2)[nH]n1 and answer again.
5.15 to 5.93

Now consider CN(c1cccc(Cl)c1)c1ncnc(Nc2ccc3[nH]ccc3c2)n1 and answer again.
5.16 to 5.94

Now consider Nc1nc2ccccc2n1-c1ncnc(Nc2ccccn2)n1 and answer again.
< 4.83

Now consider COc1ccc([C@H](C)Nc2nc3ccccc3n2-c2ncnc(Nc3cc(OC)c(OC)c(OC)c3)n2)cc1 and answer again.
< 5.07

Now consider COc1cc(Nc2ncnc(-n3c(Nc4cccc(C(=O)O)c4)nc4ccccc43)n2)cc(OC)c1OC and answer again.
5.06 to 5.17

Now consider COc1cc(Nc2ncnc(Nc3[nH]ncc3-c3cccs3)n2)cc(OC)c1OC and answer again.
< 4.98

Now consider COc1ccc(Nc2ncnc(Nc3cccc(Br)c3)n2)cc1OC and answer again.
< 4.95

Now consider COc1cccc(Nc2nc3ccccc3n2-c2ncnc(Nc3cc(OC)c(OC)c(OC)c3)n2)c1 and answer again.
< 5.05

Now consider COc1cc(Nc2ncnc(Nc3cccc(CN4CCN(C)CC4)c3)n2)cc(OC)c1OC and answer again.
< 5.01

Now consider COc1cc(Nc2ncnc(Nc3cc(-c4cccc(Cl)c4)n[nH]3)n2)cc(OC)c1OC and answer again.
5.28 to 6.05

Now consider COc1cc(Nc2ncnc(N3c4ccc(F)cc4CCC3C)n2)cc(OC)c1OC (centres unmarked) and answer again.
> 6.03

Now consider O=c1[nH]c2ccccc2n1-c1ncnc(Nc2ccc(Cl)cc2)n1 and answer again.
4.99 to 5.15

Now consider COc1cc(Nc2ncnc(-n3c(N)nc4ccccc43)n2)cc(OC)c1OCCN1CCOCC1 and answer again.
5.31 to 6.09

Now consider COc1cc(Nc2ncnc(-n3cc(CCO)c4ccccc43)n2)cc(OC)c1OC and answer again.
< 4.97
